Data origin, for the record: the Kinase Knowledgebase extract (Sharma et al. 2016)

# reported pIC50; entries follow
Target: EGFR (human) (UniProt P00533)
Sequence (P00533 whole entry, looked up): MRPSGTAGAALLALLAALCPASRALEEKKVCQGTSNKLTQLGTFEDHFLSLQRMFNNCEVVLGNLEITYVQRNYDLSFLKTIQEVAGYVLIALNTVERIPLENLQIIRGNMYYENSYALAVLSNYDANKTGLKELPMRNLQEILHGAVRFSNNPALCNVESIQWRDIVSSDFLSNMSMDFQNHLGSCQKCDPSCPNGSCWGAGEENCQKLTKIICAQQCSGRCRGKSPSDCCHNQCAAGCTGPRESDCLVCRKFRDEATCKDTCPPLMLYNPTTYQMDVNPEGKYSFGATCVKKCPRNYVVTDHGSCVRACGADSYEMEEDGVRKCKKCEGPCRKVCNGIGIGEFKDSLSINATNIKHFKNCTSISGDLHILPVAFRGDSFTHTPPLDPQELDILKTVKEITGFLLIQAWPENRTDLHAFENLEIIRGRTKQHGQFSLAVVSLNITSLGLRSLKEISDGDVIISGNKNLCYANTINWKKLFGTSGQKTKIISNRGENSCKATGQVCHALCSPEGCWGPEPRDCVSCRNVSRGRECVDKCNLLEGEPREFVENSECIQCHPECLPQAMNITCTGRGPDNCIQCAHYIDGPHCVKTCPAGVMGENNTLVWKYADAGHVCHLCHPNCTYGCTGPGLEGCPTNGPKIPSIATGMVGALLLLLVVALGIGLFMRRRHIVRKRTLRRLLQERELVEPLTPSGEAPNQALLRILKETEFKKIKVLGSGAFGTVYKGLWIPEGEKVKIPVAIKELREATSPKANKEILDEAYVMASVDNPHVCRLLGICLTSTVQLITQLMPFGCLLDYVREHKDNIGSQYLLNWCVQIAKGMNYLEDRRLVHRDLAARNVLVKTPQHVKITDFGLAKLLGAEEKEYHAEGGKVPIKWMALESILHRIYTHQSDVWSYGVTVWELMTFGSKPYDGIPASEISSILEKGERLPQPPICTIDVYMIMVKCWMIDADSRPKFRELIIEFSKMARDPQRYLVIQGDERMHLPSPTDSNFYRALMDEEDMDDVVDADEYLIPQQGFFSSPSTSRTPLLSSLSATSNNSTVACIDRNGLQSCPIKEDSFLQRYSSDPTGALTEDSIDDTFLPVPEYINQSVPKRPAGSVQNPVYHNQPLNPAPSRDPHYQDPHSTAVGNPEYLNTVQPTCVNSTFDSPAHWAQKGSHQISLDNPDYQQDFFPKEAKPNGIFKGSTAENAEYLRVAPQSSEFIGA
pIC50: −log10 of the molar value.

For orientation, consider the following solved cases.
>>> df
                  mol_smiles  measurement_type  result
0   Oc1ccc(CNc2ccc(O)cc2)cc1             pIC50    4.48
1   Oc1cccc(CNc2cccc(O)c2)c1             pIC50  < 3.85
2   Oc1ccc(NCc2cccc(O)c2)cc1             pIC50  < 3.85
3      Oc1ccccc1C=Nc1ccccc1O             pIC50  < 3.85
4     Oc1cccc(CNc2ccccc2O)c1             pIC50  < 3.85
5    Oc1ccc(N=Cc2ccccc2O)cc1             pIC50    4.04
6    Oc1ccc(C=Nc2ccccc2O)cc1             pIC50  < 3.85
7  Oc1cccc(C=Nc2cccc(O)c2)c1             pIC50  < 3.85

The reported EGFR (human) (UniProt P00533) pIC50 of Oc1cccc(N=Cc2ccccc2O)c1 is < 3.85

The reported EGFR (human) (UniProt P00533) pIC50 of O=C(O)c1cc(N(Cc2ccccc2O)Cc2cc(O)ccc2O)ccc1O is 6.40

The reported EGFR (human) (UniProt P00533) pIC50 of Oc1ccc(CNc2ccccc2O)cc1 is < 3.85

The reported EGFR (human) (UniProt P00533) pIC50 of Oc1ccc(NCc2ccccc2O)cc1 is < 3.85

The reported EGFR (human) (UniProt P00533) pIC50 of Oc1ccc(C=Nc2cccc(O)c2)cc1 is < 3.85

The reported EGFR (human) (UniProt P00533) pIC50 of Oc1ccc(C=Nc2ccc(O)cc2)cc1 is < 3.85

The reported EGFR (human) (UniProt P00533) pIC50 of Oc1ccc(CNc2cccc(O)c2)cc1 is < 3.85
